Tested on: Saccharomyces cerevisiae;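 also: PSI is a weighted mean of sequencing reads over stability bins, variants kept only with over 10 reads, mCherry proximal and sfGFP distal, peptide attached via GGGS linker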
Test: protein stability index of tFT-peptide fusion (C-terminal peptide) (PSI (0-1 scale)); higher = more stable (slower turnover)
Settings: genetic background: cdc34-1; temperature: 37 C
Each entry below lists one item and its recorded protein stability index value.

residue string: GYTVYARRLIMC
protein stability index: 0.215

residue string: SSLLLLCCLLVG
protein stability index: 0.365

residue string: VRVLAALVLCVV
protein stability index: 0.159

residue string: VCAFCLFFVPLP
protein stability index: 0.589

residue string: FVLLCVLEFVAG
protein stability index: 0.104

residue string: GGRFVWIVRAVG
protein stability index: 0.632

residue string: LLMPLLLHSLVW
protein stability index: 0.354

residue string: FLIFVVIGGVGL
protein stability index: 0.259

residue string: CLVISVLFGVVA
protein stability index: 0.238

residue string: AWVLISNRRRIM
protein stability index: 0.62

residue string: CFGIFWLFARLK
protein stability index: 0.281

residue string: LVVFLRFFLRVL
protein stability index: 0.105

residue string: VGKGAGVRDGSR
protein stability index: 0.693

residue string: RYVFAFRRNYFC
protein stability index: 0.448

residue string: DRLRSGLSLLLA
protein stability index: 0.64

residue string: MSCILFCCLVPF
protein stability index: 0.545

residue string: RGGPPPCPLLAA
protein stability index: 0.68

residue string: IKERRKVSMKVY
protein stability index: 0.639

residue string: LQYSKALAVICG
protein stability index: 0.218

residue string: VFFLSFIFRFFL
protein stability index: 0.594

residue string: RGPSQVIVAFFV
protein stability index: 0.663

residue string: PRRVTVPGVPPL
protein stability index: 0.672

residue string: LYLEAYFCIFHF
protein stability index: 0.356

residue string: FLIFGMVDFAVV
protein stability index: 0.247

residue string: GGWSFSSLWKIA
protein stability index: 0.625

residue string: IIAVFRCCLRVY
protein stability index: 0.052

residue string: TCVVCSCVLQCV
protein stability index: 0.47

residue string: GFFFYFVLFGLS
protein stability index: 0.34

residue string: GTHWARLGWLLA
protein stability index: 0.607

residue string: KQSGLQIKRRKL
protein stability index: 0.711

residue string: WAFVVCGAVFFW
protein stability index: 0.264

residue string: CVVFLWCGGCWV
protein stability index: 0.475

residue string: DVYIVLFIIKHG
protein stability index: 0.309

residue string: SLVIRLNIRLIL
protein stability index: 0.462

residue string: RWPLVIRSLIVF
protein stability index: 0.196

residue string: IVTSFVSPVYIC
protein stability index: 0.396

residue string: VCIPLLVIRFLV
protein stability index: 0.098

residue string: VWSVSVTIVGRR
protein stability index: 0.529

residue string: QYRLMQKKIVNI
protein stability index: 0.644

residue string: ELTYVYRTALIA
protein stability index: 0.152

residue string: FWVNFLFVLFIL
protein stability index: 0.257

residue string: WLKLWSYVTHLG
protein stability index: 0.66

residue string: RLFYRLSFVYFL
protein stability index: 0.398

residue string: SSVCVLVSCVLG
protein stability index: 0.462

residue string: SVQICGFWLILG
protein stability index: 0.512

residue string: YWRNYLVLVCKF
protein stability index: 0.836

residue string: FRFFYLPVSVVA
protein stability index: 0.0275

residue string: GLVSCWIDPSMA
protein stability index: 0.697

residue string: GVGAISLGFSWL
protein stability index: 0.734

residue string: YGAGDLTKYFIV
protein stability index: 0.637

residue string: DKKPMKKILLCI
protein stability index: 0.451

residue string: KSARLYVTSFLC
protein stability index: 0.571

residue string: VFCCHSSRFVFA
protein stability index: 0.642

residue string: DRYSFYGYVVVL
protein stability index: 0.587

residue string: SSAFFFLLFSLA
protein stability index: 0.423

residue string: LPSLRPPPCIRA
protein stability index: 0.444

residue string: TVCSWSALSRFM
protein stability index: 0.691

residue string: KLKLWSIIKNNA
protein stability index: 0.686

residue string: SSGIGLFVWVYG
protein stability index: 0.465

residue string: GPPVPLSPPLSP
protein stability index: 0.701

residue string: LSPLPSPLILVV
protein stability index: 0.116

residue string: FFRFCFLLLASS
protein stability index: 0.303

residue string: FLSVLPLFAFFA
protein stability index: 0.581

residue string: GLSLLLLWFKVC
protein stability index: 0.174

residue string: ISATYSYIPVVG
protein stability index: 0.502

residue string: FFSRSLGAGVAA
protein stability index: 0.71

residue string: GGVWVLGVAVVW
protein stability index: 0.114

residue string: FLFFCGWVSLFG
protein stability index: 0.408

residue string: FSPSPVFVTCRV
protein stability index: 0.247

residue string: RAQQRVKERYIE
protein stability index: 0.74

residue string: VTWNFIVYVCCF
protein stability index: 0.164

residue string: FFFFSFFLATFS
protein stability index: 0.227

residue string: EMSIISVLRVIS
protein stability index: 0.61

residue string: PIHILTHTYIGR
protein stability index: 0.669

residue string: RWCLELLWITSC
protein stability index: 0.325

residue string: EWFFCLGLFRFH
protein stability index: 0.567

residue string: GPCRPWIVVYAG
protein stability index: 0.566

residue string: FILLTLVFGCAS
protein stability index: 0.188
